- experimentalSystem: Retinoic acid receptor RXR-alpha (Homo sapiens)
- Sequence (P19793 whole entry): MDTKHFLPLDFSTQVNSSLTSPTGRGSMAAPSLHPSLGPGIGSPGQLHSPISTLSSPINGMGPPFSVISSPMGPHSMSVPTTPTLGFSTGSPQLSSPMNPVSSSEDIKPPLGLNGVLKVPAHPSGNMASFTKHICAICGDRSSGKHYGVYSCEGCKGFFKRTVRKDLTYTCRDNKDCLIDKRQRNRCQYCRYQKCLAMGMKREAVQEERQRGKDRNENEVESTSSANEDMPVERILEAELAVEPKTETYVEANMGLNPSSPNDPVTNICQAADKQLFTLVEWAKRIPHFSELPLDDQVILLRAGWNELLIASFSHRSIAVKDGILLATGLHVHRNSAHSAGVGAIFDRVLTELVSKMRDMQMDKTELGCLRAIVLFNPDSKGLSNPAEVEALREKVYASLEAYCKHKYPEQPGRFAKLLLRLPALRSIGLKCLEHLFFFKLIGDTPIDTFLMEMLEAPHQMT
- assayText: Transcriptional ativation of Retinoid X receptor RXR alpha
testReadout: pEC50
Schema: pEC50 number; meaning minus log10 of the concentration expressed in molar units.

pEC50 for "CCOc1cc2c(cc1\C(C)=C/C=C/C(C)=C/C(=O)O)C(C)(C)CCC2(C)C" is 8.10

New cases:
pEC50 for "COc1cc2c(cc1\C(C)=C/C=C/C(C)=C/C(=O)O)C(C)(C)CCC2(C)C" is 8.30

----------
Protein target, amino acids: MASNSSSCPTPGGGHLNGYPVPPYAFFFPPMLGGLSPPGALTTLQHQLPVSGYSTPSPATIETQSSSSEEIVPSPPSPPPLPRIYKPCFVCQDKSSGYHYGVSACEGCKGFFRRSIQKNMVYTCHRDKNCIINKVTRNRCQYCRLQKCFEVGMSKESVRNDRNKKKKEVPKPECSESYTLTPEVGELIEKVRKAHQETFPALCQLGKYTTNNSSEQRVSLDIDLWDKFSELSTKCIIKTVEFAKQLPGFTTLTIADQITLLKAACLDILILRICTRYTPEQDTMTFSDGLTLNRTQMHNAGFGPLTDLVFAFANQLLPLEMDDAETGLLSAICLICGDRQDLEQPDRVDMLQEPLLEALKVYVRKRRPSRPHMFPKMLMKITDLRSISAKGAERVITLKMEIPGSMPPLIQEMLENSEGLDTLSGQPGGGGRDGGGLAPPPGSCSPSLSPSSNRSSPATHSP
testReadout: pKi
Schema: pKi number; meaning minus log10 of the concentration expressed in molar units.

pKi for "CCOc1cc2c(cc1\C(C)=C/C=C/C(C)=C/C(=O)O)C(C)(C)CCC2(C)C" is 5.59
